biological target: endogenous human HER3 on human cancer cells (SK-Br-3, MCF7, BT-474) (human, UniProt P21860 20-1342); assay: cell-based or functional assay
RECORDED_ENDPOINT: % inhibition of proliferation, MCF7 (neuregulin stimulated), 10 µg/ml IgG (%)
Could you give me the number in %? Just the number is fine.

Prompt: Any idea what its % inhibition of proliferation, MCF7 (neuregulin stimulated), 10 µg/ml IgG is? The binder is MOR09823 (antibody, V domains shown) VH: QVQLVESGGGLVQPGGSLRLSCAASGFTFSSYAMSWVRQAPGKGLEWVSVTGAVGRTYYPDSVKGRFTISRDNSKNTLYLQMNSLRAEDTAVYYCARWGDEGFDIWGQGTLVTVSS VL: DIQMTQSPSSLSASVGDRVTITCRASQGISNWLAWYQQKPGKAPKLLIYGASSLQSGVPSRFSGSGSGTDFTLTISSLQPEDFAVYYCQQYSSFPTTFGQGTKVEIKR
Response: 82
